Taken from ChEMBL document CHEMBL1149977.

Test system: CEM-SS
Test: Tested for the inhibition of HIV-1 in CEM-SS cells measured using Syncytial assay
Format: functional, cell-based
Settings: Homo sapiens
Reported property: log10(IC50) (log10 of the value in µM)
// do not treat as linear: log10 of IC50, unit µM

Here's what some known entries look like.
{"columns": ["Compound", "log10(IC50)"],
 "data": [
  ["C=CCNC(C)Cn1c(S)nc2ccccc21 (stereo not drawn)", 1.45],
  ["CC(C)=CCNC(C)Cn1c(S)nc2ccccc21 (stereo not drawn)", 1.36],
  ["CC(C)=CCN(C)C(C)Cn1c(S)nc2ccccc21 (stereo not drawn)", 1.15]
]}

**Query** Notebook: pull reported log10(IC50) for CEM-SS, entry C=CCN(C)C(C)Cn1c(S)nc2ccccc21 (stereo not drawn)
**Result** 1.36

**Query** Field: log10(IC50) (CEM-SS). Entry: CC(Cn1c(S)nc2ccccc21)N(C)Cc1ccccc1 (stereo not drawn)
**Result** 1.30

**Query** Record CC(C)=CCN1Cc2cc(Cl)cc3[nH]c(=S)n(c23)C[C@@H]1C : what is its log10(IC50) with CEM-SS?
**Result** -1.26

**Query** Write down the reported log10(IC50) of CC(Cn1c(S)nc2ccccc21)NCc1ccccc1 (stereo not drawn) , test system: CEM-SS.
**Result** 0.63

**Query** Fill in the recorded log10(IC50) for this compound, with CEM-SS as test system: CC(C)=CCN1Cc2cccc3[nH]c(=S)n(c23)C[C@@H]1C
**Result** -1.59

---

Molecular target: Human immunodeficiency virus type 1 reverse transcriptase (Human immunodeficiency virus 1)
Reported property: IC50 (nM)
# number only, unit nM dropped from output

**Query** I am curious: what IC50 value has been reported for CC(C)=CCN1Cc2cc(Cl)cc3[nH]c(=S)n(c23)C[C@@H]1C ?
**Result** 15.5

---

Molecular target: Human immunodeficiency virus type 1 reverse transcriptase (Human immunodeficiency virus 1) (UniProt Q72547)
Experiment: Tested for the inhibition of HIV-1 reverse transcriptase at a concentration of 10 ug/mL using a ribosomal RNA template
Reported inhibition is given for each of the following compounds.
I only need the number, in %, no unit after it.

Here are 3 compounds together with their reported answers.
{"columns": ["Compound", "inhibition [%]"],
 "data": [
  ["CC(Cn1c(S)nc2ccccc21)NCc1ccccc1 (stereo not given)", 17],
  ["CC(C)=CCN(C)C(C)Cn1c(S)nc2ccccc21 (stereo not given)", 19],
  ["CC(Cn1c(S)nc2ccccc21)N(C)Cc1ccccc1 (stereo not given)", 13]
]}

**Query** Please look up its inhibition: C=CCNC(C)Cn1c(S)nc2ccccc21 (stereo not given)
**Result** 4.5

**Query** Look up inhibition: CC(C)=CCNC(C)Cn1c(S)nc2ccccc21 (stereo not given)
**Result** 19
